target: canine CD3 on canine T cells (canine PBMC) (canine, UniProt P27597 22-202); experiment: cell-based or functional assay
Sequence (P27597 22-202 limits assumed, chain 1 of 3): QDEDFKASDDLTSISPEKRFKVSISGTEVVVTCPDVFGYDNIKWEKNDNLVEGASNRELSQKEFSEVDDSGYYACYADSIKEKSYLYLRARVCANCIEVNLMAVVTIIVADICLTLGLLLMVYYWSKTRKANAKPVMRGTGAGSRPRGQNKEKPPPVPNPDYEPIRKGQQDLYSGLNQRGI
Sequence (chain, as listed by the source limits assumed, chain 2 of 3): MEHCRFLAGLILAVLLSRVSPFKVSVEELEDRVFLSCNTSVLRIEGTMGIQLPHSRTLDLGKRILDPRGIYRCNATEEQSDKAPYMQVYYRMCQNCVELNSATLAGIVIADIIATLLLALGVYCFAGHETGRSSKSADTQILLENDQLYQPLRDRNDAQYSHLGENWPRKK
Sequence (chain, as listed by the source limits assumed, chain 3 of 3): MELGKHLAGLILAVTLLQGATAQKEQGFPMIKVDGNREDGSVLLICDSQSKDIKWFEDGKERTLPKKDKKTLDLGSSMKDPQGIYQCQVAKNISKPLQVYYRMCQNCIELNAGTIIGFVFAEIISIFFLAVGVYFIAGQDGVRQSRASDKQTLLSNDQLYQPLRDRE
test readout: IFNy Concentration pg/ml, Day 9, IS (pg/mL)
# output: bare number, implied unit pg/mL

Illustrative cases are given below, each with its answer.
// IFNy Concentration pg/ml, Day 9, IS lookup, binder = PMX191 (monospecific anti-canine CD3, canine IgG-B effector function deficient Fc) (antibody, V domains shown) VH: EVQLVESGGDLVKPAGSLRLSCVASGFTFSDYSMSWVRQGPEKGLQLVAGMNSDGSTTYYTDAVRGRFTISRDNAKNTMYLQMNSLRDEDTAIYYCAKGAAAPDYWGQGTLVTVSS VL: SYELTQPPSVNVTLRETAHITCGGDRIGSKYVQWIQQIPGQAPVVIIYKDNNRPTGIPERFSGANSGNTATLTISGALAEDEADYYCQVGDNYTWVFGEGTQLTVL , result: 370

// IFNy Concentration pg/ml, Day 9, IS lookup, binder = PMX157 (monospecific anti-canine CD3, canine IgG-B effector function deficient Fc) (antibody, V domains shown) VH: ELTLQESGPGLVKPSQTLSLTCVVSGGSVTSSYFWNWIRQRPGRGLEWMGYWTGSTIYSPAFQGRISITPDTAKNQFSLQLSSMTTEDTAVYYCSREGGSTLGAFAYWGQGTLVTVSS VL: SYVLTQLPSKNVTLKQPAHITCGGDKIGSKSVHWYQQKLGQAPVLIIYYDSSRPTGIPERFSGANSGNTATLTISGALAEDEADYYCQVWDSSAKASVFGGGTHLTVL , result: 209

# context switch: different binder, same IFNy Concentration pg/ml, Day 9, IS
// IFNy Concentration pg/ml, Day 9, IS lookup, binder = PMX200 (monospecific anti-canine CD3, canine IgG-B effector function deficient Fc) (antibody, V domains shown) VH: ELTLQESGPGLVKPSQTLSLTCIVSGGSVTSSYYWNWIRQSPGRGLEWMGYWTGNTNYNPALQGRIFITADTAKNQFSLQLRSMTTEDTAVYYCARGGYGYHYGMDYWGHGTSVFVSS VL: SYVLTQLPSKSVALKQPAHITCGGDNIGSKRVHWYQQKLGQAPALIISFDNSRPTGIPERFSGANSGNTATLTISGALAEDEADYYCQVWDSTAKASIFGGGTHLTVL , result: 363
